- MEASURED_ON: Cynomolgus monkey C5 (cynomolgus monkey, UniProt A0A2K5U1T1 19-1676)
- PROTOCOL_DETAILS: cell-based or functional assay
Would you kindly list Cyno CP % Max Inhibition, hemolysis assay, 5% serum for each of these binders?
Number only, in %; omit the unit.

Bench note: what Cyno CP % Max Inhibition, hemolysis assay, 5% serum did H4H11686N (antibody, human IgG4, V domains shown, tested with H4H prefix (human IgG4 Fc with S108P hinge mutation); also called H2M11686N) VH: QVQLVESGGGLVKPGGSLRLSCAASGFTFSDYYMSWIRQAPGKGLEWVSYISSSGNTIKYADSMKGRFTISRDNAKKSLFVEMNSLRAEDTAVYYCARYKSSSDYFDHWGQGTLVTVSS VL: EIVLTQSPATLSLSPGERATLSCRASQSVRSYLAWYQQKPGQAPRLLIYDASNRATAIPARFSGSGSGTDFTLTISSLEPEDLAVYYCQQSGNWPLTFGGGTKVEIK show? 94.5

For H4H12171P (antibody, human IgG4, V domains shown, H4H: human IgG4 Fc with S108P hinge mutation) VH: EVQLVESGGGVVRPGGSLRLSCAASGFTFDEYGMTWVRQVPGKGLEWVSGITWNGGFTDYTDSVKGRFTSSRDNAKNSLYLQMNSLRAEDTALYYCARDGYSSSWGAYDIWGQGTMVTVSS VL: DIQMTQSPSSLSASVGDRVTITCRASQSISTYLNWYQQKPGKAPKLLIYAASSLQSGVPLRFSGSGSGTDFTLTISSLQPEDFASYFCQQSYSTPYTFGQGTKLEIK then? 92.9

For H4H12167P (antibody, human IgG4, V domains shown, H4H: human IgG4 Fc with S108P hinge mutation) VH: QVQLVESGGGLVKPGGSLRLSCAASGFTFSDSYMSWIRQAPGKGLEWISYIGSSGNTFYYADSVKGRFTISRDNANNLLYLQMTSLRAEDTAVYYCAREEGDFWSAVDSWGQGTLVTVSS VL: DIQLTQSPSFLSASVGDRVTITCWASQGISSYLAWYQQKPGKAPKLLIHTASTLQSGVPSRFSGSGSGTEFTLTISNLQPEDFATYYCQQLNSYPFTFGPGTKVDIK then? 100

For H4H12161P (antibody, human IgG4, V domains shown, H4H: human IgG4 Fc with S108P hinge mutation) VH: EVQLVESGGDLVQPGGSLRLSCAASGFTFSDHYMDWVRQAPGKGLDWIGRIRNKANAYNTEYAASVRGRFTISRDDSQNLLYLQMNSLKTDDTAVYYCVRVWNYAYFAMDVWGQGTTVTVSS VL: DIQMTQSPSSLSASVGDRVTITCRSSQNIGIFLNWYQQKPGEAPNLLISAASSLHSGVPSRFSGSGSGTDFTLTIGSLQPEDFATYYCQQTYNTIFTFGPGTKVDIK then? 100
